Reference source: the supplement of paper PMC7830784

System: Brugia pahangi adult female
method: IC50 motility inhibition on day 3
condition label: 3 days
Where a name gives a salt, the structure may show the parent alone.
Label T when IC50 motility inhibition on day 3 < 5 µM; otherwise F.

molecule	answer label
N=C(NCCCCCCNC(=N)NC(=N)Nc1ccc(Cl)cc1)NC(=N)Nc1ccc(Cl)cc1	F
COC(=O)C1=C(C)NC(C)=C(C(=O)OCC(C)C)C1c1ccccc1[N+](=O)[O-] (stereo not drawn)	F
CCCCCCCCCCCCCCCC[N+](C)(C)C [cetrimonium bromide]	F
C[n+]1c2cc(N)ccc2cc2ccc(N)cc21 [acriflavinium hydrochloride]	T
Oc1c(Cl)cc(Cl)c2cccnc12	T
CCCCCCCCNC(C)C(O)c1ccc(SC(C)C)cc1 (stereo not drawn)	T
Cc1cc(C(C)(C)CC(C)(C)C)ccc1OCCOCC[N+](C)(C)Cc1ccccc1 [methylbenzethonium chloride]	T
O=C(CCN1CCC(c2ccccc2)C1)c1ccc2c(c1)OCCO2 (stereo not drawn)	F
O=C1c2cccc(O)c2C(=O)c2c(O)cccc21	F
C[n+]1cc2c3c(ccc2c2ccc4cc5c(cc4c21)OCO5)OCO3 [Sanguinarine chloride]	F
CC1=CC(=O)c2ccccc2C1=O	T
CC[n+]1c(-c2ccccc2)c2cc(N)ccc2c2ccc(N)cc21 [homidium bromide]	F
